# TEST_SYSTEM: IL-23 mediated signalling (Homo sapiens)
# Sequence (Q5VWK5 24-629 limits assumed): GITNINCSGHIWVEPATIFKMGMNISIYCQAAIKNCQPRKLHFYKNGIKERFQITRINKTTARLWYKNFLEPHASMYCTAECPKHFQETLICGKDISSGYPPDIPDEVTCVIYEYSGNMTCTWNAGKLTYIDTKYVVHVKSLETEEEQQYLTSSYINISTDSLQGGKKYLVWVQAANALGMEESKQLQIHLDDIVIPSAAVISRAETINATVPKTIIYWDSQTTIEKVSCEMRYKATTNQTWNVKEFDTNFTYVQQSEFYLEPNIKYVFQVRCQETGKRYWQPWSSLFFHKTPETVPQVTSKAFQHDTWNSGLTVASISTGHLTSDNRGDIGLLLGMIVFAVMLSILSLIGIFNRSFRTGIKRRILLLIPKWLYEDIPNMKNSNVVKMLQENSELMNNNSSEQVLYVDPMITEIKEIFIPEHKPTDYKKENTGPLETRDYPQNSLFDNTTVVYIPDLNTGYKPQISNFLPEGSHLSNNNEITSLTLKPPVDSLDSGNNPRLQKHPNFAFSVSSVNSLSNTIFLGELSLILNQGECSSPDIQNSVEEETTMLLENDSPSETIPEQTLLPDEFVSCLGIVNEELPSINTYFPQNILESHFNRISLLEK
# EXPERIMENTAL_DETAILS: Functional inhibition of IL-23 mediated STAT3 signalling (phospho-STAT3 MSD) in DB cells
# Assay type: cell-based
# MEASUREMENT_CONTEXT: SAR tables 2-1 to 2-7; DB cells, hIL-23 at EC80; read-out: IC50 (pSTAT3)
MEASUREMENT_NAME: IC50 (nM)
Numeric answer only, unit nM assumed.

Q. Identify the measured IC50 of CC(C)C[C@]1(C)NC(=O)[C@H](Cc2ccc3ccccc3c2)NC(=O)[C@H](Cc2ccc(OCCN)cc2)NC(=O)[C@@H]2CCC(=O)N[C@H](CCCCNC(=O)CC[C@@H](C(=O)N[C@@H](CCN)C(=O)N[C@@H](Cc3cccnc3)C(N)=O)NC1=O)C(=O)N[C@@H]([C@@H](C)O)C(=O)N[C@@H](C(C)C)C(=O)N[C@@H](Cc1c[nH]c3ccccc13)C(=O)N[C@@H](CCC(N)=O)C(=O)N2 for IL-23 mediated signalling (Homo sapiens).
A. 0.23

###

# TEST_SYSTEM: human IL-23R (Homo sapiens, UniProt Q5VWK5)
# Sequence (Q5VWK5 22-629): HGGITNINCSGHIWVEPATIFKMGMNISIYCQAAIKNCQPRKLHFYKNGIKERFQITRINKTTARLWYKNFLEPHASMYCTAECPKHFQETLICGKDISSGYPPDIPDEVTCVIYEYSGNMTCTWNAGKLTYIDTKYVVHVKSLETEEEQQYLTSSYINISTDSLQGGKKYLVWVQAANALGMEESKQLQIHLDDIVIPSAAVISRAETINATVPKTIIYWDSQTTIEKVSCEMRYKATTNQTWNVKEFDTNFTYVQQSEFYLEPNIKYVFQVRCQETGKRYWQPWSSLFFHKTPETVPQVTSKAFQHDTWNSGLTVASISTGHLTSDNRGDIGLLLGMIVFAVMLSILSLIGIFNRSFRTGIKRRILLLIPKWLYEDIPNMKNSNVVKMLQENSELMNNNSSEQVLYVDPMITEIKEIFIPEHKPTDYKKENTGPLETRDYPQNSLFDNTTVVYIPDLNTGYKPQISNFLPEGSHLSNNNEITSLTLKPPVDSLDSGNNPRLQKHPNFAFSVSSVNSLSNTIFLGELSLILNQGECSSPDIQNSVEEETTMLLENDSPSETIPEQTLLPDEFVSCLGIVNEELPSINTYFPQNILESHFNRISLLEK
# EXPERIMENTAL_DETAILS: biochemical
MEASUREMENT_NAME: % displacement (hIL-23R NIuc)

Q. Can you share its % displacement (hIL-23R NIuc)? I mean this molecule: CC(C)C[C@]1(C)NC(=O)[C@H](Cc2ccc3ccccc3c2)NC(=O)[C@H](Cc2ccc(OCCN)cc2)NC(=O)[C@@H]2CCNC(=O)CC[C@H](NC(=O)[C@H](CO)NC(=O)Cc3ccc(cc3)CNC(=O)CC[C@@H](C(=O)N[C@@H](CCN)C(=O)N[C@@H](Cc3cccnc3)C(N)=O)NC1=O)C(=O)N[C@@H](Cc1c[nH]c3ccccc13)C(=O)N[C@@H](CCC(N)=O)C(=O)N2 [Ref 122, reference compound]
A. 97%

***
Q. Can you share its % displacement (hIL-23R NIuc)? I mean this molecule: CC(C)C[C@]1(C)NC(=O)[C@H](Cc2ccc3ccccc3c2)NC(=O)[C@H](Cc2ccc(OCCN)cc2)NC(=O)[C@@H]2CSCC(=O)CSC[C@H](NC(=O)[C@H](CO)NC(=O)Cc3ccc(cc3)CNC(=O)CC[C@@H](C(=O)N[C@@H](CO)C(N)=O)NC1=O)C(=O)N[C@@H](Cc1c[nH]c3ccccc13)C(=O)N[C@@H](CCC(N)=O)C(=O)N2 [Ref 81, reference compound]
A. 101%

###

# TEST_SYSTEM: UniProt:Q5VWK5
# EXPERIMENTAL_DETAILS: Functional inhibition of IL-23 mediated STAT3 signalling (phospho-STAT3 MSD) in DB cells
# Type: cell-based
*1 amine or outer side, *2 acyl side, *3 side chain or, on linkers, in order; H or OH if unused. Where a SMILES comes first, the peptide text is derived from it. Bridges are numbered along the chain shown (N, C = ends). [ ]: non-standard residue; d: D form. 2Nal = N[C@@H](Cc1ccc2ccccc2c1)C(=O)O; AEF = NCCOc1ccc(C[C@H](N)C(=O)O)cc1; X1 = O=C(Cc1ccc(CN[*:1])cc1)[*:2]; 3Pal = N[C@@H](Cc1cccnc1)C(=O)O; αMeL = CC(C)C[C@](C)(N)C(=O)O; CH2COCH2 = O=C(C[*:1])C[*:2]; Dab = NCC[C@H](N)C(=O)O
MEASUREMENT_NAME: pIC50
Formally, pIC50 is defined as -log10 of the concentration c, with c in mol/L.

Q. Can you share its pIC50? I mean this compound: CC(C)C[C@]1(C)NC(=O)[C@H](Cc2ccc3ccccc3c2)NC(=O)[C@H](Cc2ccc(OCCN)cc2)NC(=O)[C@@H]2CSCC(=O)CSC[C@H](NC(=O)[C@H](CO)NC(=O)Cc3ccc(cc3)CNC(=O)CC[C@@H](C(=O)N[C@@H](CCN)C(=O)N[C@@H](Cc3cccnc3)C(N)=O)NC1=O)C(=O)N[C@@H](Cc1c[nH]c3ccccc13)C(=O)N[C@@H](CCC(N)=O)C(=O)N2 [Ref 120, reference compound] ([X1]SCWQC[AEF][2Nal][αMeL]E[Dab][3Pal]-NH2; linker 3-6 via CH2COCH2; lactam N-10)
A. 10.27

###

The entries below come with measured remaining at 4 h, 10 µM values attached.
# EXPERIMENTAL_DETAILS: Peptide stability in simulated gastric fluid (SGF)
# Type: in vitro ADME
# MEASUREMENT_CONTEXT: pig, simulated gastric fluid (SGF) with porcine pepsin (3.2 g/L), pH 1.2, 10 µM, 37 °C, porcine pepsin, pH 1.2, 4 h; read-out: SGF (% remaining 4 h)
Express your answer as a number followed by its unit.

Example results:
Q. Can you share its remaining at 4 h, 10 µM? I mean this compound: CNC(=O)[C@H](Cc1cccnc1)NC(=O)[C@H](CCN)NC(=O)[C@@H]1CCC(=O)N[C@H]2CCCCNC(=O)CC[C@H](NC(=O)[C@H](CCC(N)=O)NC(=O)[C@H](Cc3c[nH]c4ccccc34)NC(=O)CNC2=O)C(=O)N[C@@H](Cc2ccc(OCCN)cc2)C(=O)N[C@@H](Cc2ccc3ccccc3c2)C(=O)N[C@@](C)(CC(C)C)C(=O)N1 [Compound 104]
A. 106%

Q. Can you share its remaining at 4 h, 10 µM? I mean this compound: CNC(=O)[C@H](Cc1cccnc1)NC(=O)[C@H](CCN)NC(=O)[C@@H]1CCC(=O)NCCCC[C@@H]2NC(=O)CC[C@H](NC(=O)[C@H](CCC(N)=O)NC(=O)[C@H](Cc3c[nH]c4ccccc34)NC(=O)CCCNC2=O)C(=O)N[C@@H](Cc2ccc(OCCN)cc2)C(=O)N[C@@H](Cc2ccc3ccccc3c2)C(=O)N[C@@](C)(CC(C)C)C(=O)N1 [Compound 98]
A. 96%

Kindly consider the entry below.
Q. Can you share its remaining at 4 h, 10 µM? I mean this compound: CC[C@H](C)[C@@H]1NC(=O)[C@@H]2CCCCNC(=O)CC[C@@H](C(=O)N[C@@H](CCN)C(=O)NCCc3cccnc3)NC(=O)[C@](C)(CC(C)C)NC(=O)[C@H](Cc3ccc4ccccc4c3)NC(=O)[C@H](Cc3ccc(OCCN)cc3)NC(=O)[C@H](CCC(=O)N2)NC(=O)[C@H](CCC(N)=O)NC(=O)[C@H](Cc2c[nH]c3ccccc23)NC(=O)[C@H](C(C)C)NC1=O [Compound 66]
A. 97%

###

# TEST_SYSTEM: human IL-23R (Homo sapiens, UniProt Q5VWK5)
# EXPERIMENTAL_DETAILS: biochemical
# MEASUREMENT_CONTEXT: read-out: % displacement (hIL-23R NIuc)
Where a SMILES comes first, the peptide text is derived from it. Bridges are numbered along the chain shown (N, C = ends). [ ]: non-standard residue; d: D form. 2Nal = N[C@@H](Cc1ccc2ccccc2c1)C(=O)O; 3Pal = N[C@@H](Cc1cccnc1)C(=O)O; αMeL = CC(C)C[C@](C)(N)C(=O)O; Dab = NCC[C@H](N)C(=O)O; βAla = NCCC(=O)O
The entries below come with measured Emax values attached.
Numeric answer only, unit % assumed.

Example results:
Q. Can you share its Emax? I mean this compound: CC[C@H](C)[C@@H]1NC(=O)[C@@H]2CCCCNC(=O)CC[C@@H](C(=O)NCCCCC(=O)N[C@@H](Cc3cccnc3)C(=O)NC)NC(=O)[C@](C)(CC(C)C)NC(=O)[C@H](Cc3ccc4ccccc4c3)NC(=O)[C@H](Cc3ccc(OCCN)cc3)NC(=O)[C@H](CCC(=O)N2)NC(=O)[C@H](CCC(N)=O)NC(=O)[C@H](Cc2c[nH]c3ccccc23)NC(=O)[C@H](C(C)C)NC1=O
A. 99

Q. Can you share its Emax? I mean this compound: CNC(=O)[C@H](Cc1cccnc1)NC(=O)[C@H](CCN)NC(=O)[C@@H]1CCC(=O)NCCCC[C@@H]2NC(=O)CC[C@H](NC(=O)[C@H](CCC(N)=O)NC(=O)[C@H](Cc3c[nH]c4ccccc34)NC(=O)CCNC2=O)C(=O)N[C@@H](Cc2c[nH]c3ccccc23)C(=O)N[C@@H](Cc2ccc3ccccc3c2)C(=O)N[C@@](C)(CC(C)C)C(=O)N1 [Compound 110] (K[βAla]WQEW[2Nal][αMeL]E[Dab][3Pal]-NHMe; lactam 1-9, N-5)
A. 100

Q. Can you share its Emax? I mean this compound: CNC(=O)[C@H](Cc1cccnc1)NC(=O)[C@H](Cc1ccncc1)NC(=O)[C@@H]1CCC(=O)NCCCC[C@@H]2NC(=O)CC[C@H](NC(=O)[C@H](CCC(N)=O)NC(=O)[C@H](Cc3c[nH]c4ccccc34)NC(=O)CCNC2=O)C(=O)N[C@@H](Cc2ccc(OCCN)cc2)C(=O)N[C@@H](Cc2ccc3ccccc3c2)C(=O)N[C@@](C)(CC(C)C)C(=O)N1
A. 100

***
Q. Can you share its Emax? I mean this compound: COc1ccc(C[C@@H]2NC(=O)[C@@H]3CCC(=O)N[C@@H](CCCCNC(=O)CC[C@@H](C(=O)N[C@@H](CCCCNC(=O)CCc4ccncc4)C(N)=O)NC(=O)[C@](C)(CC(C)C)NC(=O)[C@H](Cc4ccc5ccccc5c4)NC2=O)C(=O)N[C@@H]([C@@H](C)O)C(=O)N[C@@H](C(C)C)C(=O)N[C@@H](Cc2c[nH]c4ccccc24)C(=O)N[C@@H](CCC(N)=O)C(=O)N3)cc1
A. 100

Q. Can you share its Emax? I mean this compound: CC[C@H](C)[C@@H]1NC(=O)[C@@H]2CCCCNC(=O)CC[C@@H](C(=O)N[C@@H](CCN)C(=O)N[C@@H](Cc3cccnc3)C(=O)NC)NC(=O)CNC(=O)[C@H](Cc3ccc4ccccc4c3)NC(=O)[C@H](Cc3ccc(OCCN)cc3)NC(=O)[C@H](CCC(=O)N2)NC(=O)[C@H](CCC(N)=O)NC(=O)[C@H](Cc2c[nH]c3ccccc23)NC(=O)[C@H](C(C)C)NC1=O
A. 99
